src = the RNAGym collection of RNA variant scans (doi:10.7554/elife.80360)

self-cleavage for assorted variants
B1: Hairpin Ribozyme (parent)
chain: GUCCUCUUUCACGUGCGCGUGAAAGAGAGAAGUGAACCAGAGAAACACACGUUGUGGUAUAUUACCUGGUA

- Variants of: B1
- protocol notes: self-cleavage, relative activity (ratio to wild type); higher = more cleavage; co-transcriptional
measured property: self-cleavage

{"columns": ["variant descriptor", "data value"],
 "data": [
  ["A44C C66A", 0.215],
  ["G51C U67G", 0.164],
  ["G51U A59G", 0.138],
  ["A41G A64G", 0.326],
  ["U8A A26U", 0.421],
  ["A30U A71C", 0.299],
  ["U14A A36U", 0.582],
  ["G29C C65G", 0.209],
  ["A28G G34A", 1.25],
  ["U2A C65G", 0.146],
  ["A45C G51U", 0.116],
  ["G17U G68C", 0.162],
  ["A31C C46U", 0.187],
  ["G1C G27C", 0.201],
  ["U8A G29A", 0.183],
  ["A26G A71U", 0.823],
  ["G25A A31U", 0.0553],
  ["A39G C66A", 0.101],
  ["U5C U70C", 0.277],
  ["A26U A43C", 0.098],
  ["G27C A35U", 0.0854],
  ["U7G C12U", 0.753],
  ["G17C A36C", 0.532],
  ["U33A C46A", 0.122],
  ["A26C G51C", 0.714],
  ["G15U G40U", 0.206],
  ["A28C C46G", 0.0967],
  ["G42A U60A", 0.0887],
  ["G25U C37G", 0.182],
  ["G13C A45G", 0.178],
  ["G29C C50U", 0.144],
  ["G40C U53G", 0.103],
  ["C3A G57U", 0.153],
  ["A61G C65A", 0.159],
  ["G25U G57U", 0.179],
  ["G19C A41U", 1.11],
  ["A23U C65G", 0.159],
  ["A30C A49U", 0.154],
  ["C10G A26U", 0.352],
  ["G29C G68U", 0.125],
  ["C4A C12G", 0.245],
  ["U2A G54C", 0.145],
  ["U9C A24C", 0.657]
]}
